Source: PubChem BioAssay

# PROCEDURE DETAILS: viability loss with induced miR-34 in A549 – imaging, A549 dox-inducible miR-34, nuclei and caspase counts, primary screen (AID 1347080)
# PROTOCOL CONDITIONS: A549 miR-34 inducible, Hoechst nuclei count, 48 h; measured here: relative caspase fold change +Dox/-Dox
ENDPOINT: fold change
The answer should be a number; do not append a unit.

Prompt: Name the recorded fold change for `CCCCC/C=C\C/C=C\C/C=C\C/C=C\CCCC(=O)S[C@H](COCCCCCCCCCCCCCCCC)COP(=O)([O-])OCC[N+](C)(C)C` .
Response: 0.9

Now, please, on to the next molecule.
Prompt: Name the recorded fold change for CC(C)CCCC(C)NC(C)C (stereo unspecified) .
Response: 0.874

###

# PROCEDURE DETAILS: viability loss with induced miR-34 in A549 – imaging, A549 dox-inducible miR-34, nuclei and caspase counts, primary screen (AID 1347080)
# PROTOCOL CONDITIONS: A549 miR-34 inducible, Hoechst nuclei count, 48 h; measured here: relative caspase fold change +Dox/-Dox
Below, each of the molecules is paired with its reported fold change value.
The answer should be a number; do not append a unit.

Below: 5 molecules and their reported fold change.
Prompt: Name the recorded fold change for `Nc1nc(-c2ccc(Cl)c(Cl)c2)c(-c2ccncc2)s1` .
Response: 1.23

Prompt: Name the recorded fold change for `CCN(CC)c1ccc(/C=N/NC(=O)c2ccc(O)cc2)cc1` .
Response: 1.02

Prompt: Name the recorded fold change for `CCCCCCCCCCOc1ccc(OCC(=O)Cn2cc(C(=O)OC)c3cc(C(=O)O)ccc32)cc1` .
Response: 0.386

Prompt: Name the recorded fold change for `CC(C)(C)OC(=O)N1CCC(OCc2nc(-c3ccncc3)no2)CC1` .
Response: 0.58

Prompt: Name the recorded fold change for `CNC(=O)c1ccc(C)c(-n2c(C)cc(OCc3ccc(F)cc3F)c(Br)c2=O)c1` .
Response: 0.999

New cases:
Prompt: Name the recorded fold change for `CCCCC[C@H](O)/C=C/[C@H]1[C@H](O)CC(=O)[C@@H]1CCCCCCCCC(=O)O` .
Response: 1.98

Prompt: Name the recorded fold change for O=C(NCCCN1CCCCCC1)C(c1ccccc1)C1CCCCC1 (stereo not drawn) .
Response: 0.832

Prompt: Name the recorded fold change for `CCCc1c(OCCCOc2ccc(OCC(=O)O)cc2)ccc(CC=O)c1O` .
Response: 0.927

Prompt: Name the recorded fold change for OCC(O)[C@@H](O)CO (stereo partly drawn) .
Response: 0.896

Prompt: Name the recorded fold change for CCCCC[C@H](O)/C=C/[C@H]1[C@H](O)CC(=O)[C@@H]1C/C=C\CCCC(=O)OCC(O)CO (stereo partly drawn) .
Response: 0.932

Prompt: Name the recorded fold change for `C1CCC2(CC1)CCNCC2` .
Response: 1.56

Prompt: Name the recorded fold change for `CCOC(=O)C1=C[C@@H](OC(CC)CC)[C@H](NC(C)=O)[C@@H](N)C1` .
Response: 1.08

Prompt: Name the recorded fold change for `c1ccc2nc(C3=NCCN3)cnc2c1` .
Response: 0.854

###

# PROCEDURE DETAILS: drug combination growth inhibition, ovarian cancer – cell-based, oncology-focused library, rucaparib conditional, profiling panel (AID 1508598)
# PROTOCOL CONDITIONS: patient-derived ovarian cancer cells, CellTiter-Glo viability, 144 h; at 0.000305 µM; OCI-C5x cells; without rucaparib; stronger effect = lower value
Calls of active or inactive are those of the source.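 How the source made its calls: active means normalized viability below 100% at a tested concentration; inactive means the rest.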
ENDPOINT: viability

Below: 6 compounds and their reported viability.
Prompt: Name the recorded viability for `CNC(=O)c1cc(Oc2ccc(NC(=O)Nc3cc(C(C)(C)C)nn3-c3ccc4ncccc4c3)c(F)c2)ccn1` .
Response: 112% (inactive)

Prompt: Name the recorded viability for CC[C@@H]1C(=O)N(C)c2cnc(Nc3ccc(C(=O)NC4CCC(N5CCN(CC6CC6)CC5)CC4)cc3OC)nc2N1C(C)C (stereo partly drawn) .
Response: 104% (inactive)

Prompt: Name the recorded viability for `CN1CCC(CNc2ccc3ncc(-c4cccc(OC(F)(F)F)c4)n3n2)CC1` .
Response: 115% (inactive)

Prompt: Name the recorded viability for `O=C(NCCCNc1nc(Nc2cccc(NC(=O)N3CCCC3)c2)ncc1I)c1cccs1` .
Response: 106% (inactive)

Prompt: Name the recorded viability for `N#CCNC(=O)c1ccc(-c2ccnc(Nc3ccc(N4CCOCC4)cc3)n2)cc1` .
Response: 113% (inactive)

Prompt: Name the recorded viability for `CNC(=O)c1ccc(N2C(=S)N(c3ccc(C#N)c(C(F)(F)F)c3)C(=O)C2(C)C)cc1F` .
Response: 85.9% (active)

New cases:
Prompt: Name the recorded viability for `COc1cc2nccc(Oc3ccc(NC(=O)C4(C(=O)Nc5ccc(F)cc5)CC4)cc3)c2cc1OC` .
Response: 126% (inactive)

Prompt: Name the recorded viability for `COc1ccc(-c2ccc3c(N4CCOC[C@@H]4C)nc(N4CCOC[C@@H]4C)nc3n2)cc1CO` .
Response: 106% (inactive)

###

# PROCEDURE DETAILS: drug combination growth inhibition, ovarian cancer – cell-based, oncology-focused library, rucaparib conditional, profiling panel (AID 1508598)
# PROTOCOL CONDITIONS: patient-derived ovarian cancer cells, CellTiter-Glo viability, 144 h; at 0.313 µM; OCI-C5x cells; without rucaparib
Activity calls are given as the source filed them.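 Rule for the calls: active = normalized viability below 100% at a tested concentration; inactive = the rest.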
Can you answer with just one of these options? TRUE (active), FALSE (inactive)

Worked examples, 8 molecules total:
Prompt: Record lookup: outcome of this test for `Nc1ccc(C(=O)Nc2cccc(-c3nc(N4CCOCC4)c4oc5ncccc5c4n3)c2)cn1` ?
Response: FALSE

Prompt: Record lookup: outcome of this test for `C[C@@H](Oc1cc(-c2cnn(C3CCNCC3)c2)cnc1N)c1c(Cl)ccc(F)c1Cl` ?
Response: FALSE

Prompt: Record lookup: outcome of this test for `Cc1cnc(-c2ccccc2C(C)C)nc1NCc1ccc(-n2ccnn2)cc1` ?
Response: FALSE

Prompt: Record lookup: outcome of this test for `C#Cc1cccc(Nc2ncnc3cc(OCCOC)c(OCCO)cc23)c1` ?
Response: FALSE

Prompt: Record lookup: outcome of this test for `Cc1ccc2c(=O)c3cccc(CC(=O)O)c3oc2c1C` ?
Response: FALSE

Prompt: Record lookup: outcome of this test for `CNc1nc(-c2ccc3c(N)n[nH]c3c2)cc(N2C[C@@H](C(=O)NC3CCCCC3)CC[C@H]2C)n1` ?
Response: FALSE

Prompt: Record lookup: outcome of this test for `C[C@H](NC(=O)Cc1cc(F)cc(F)c1)C(=O)N[C@@H]1C(=O)N(C)c2ccccc2-c2ccccc21` ?
Response: FALSE

Prompt: Record lookup: outcome of this test for `CCC[C@H](NC(=O)/C(C#N)=C/c1cccc(Br)n1)c1ccccc1` ?
Response: FALSE

New cases:
Prompt: Record lookup: outcome of this test for `CC(C)[C@H](C(=O)Nc1ccc(C(=O)NO)cc1)c1ccccc1` ?
Response: TRUE

Prompt: Record lookup: outcome of this test for `Cc1cnc(-c2cnc(NCCNc3ccc(C#N)cn3)nc2-c2ccc(Cl)cc2Cl)[nH]1` ?
Response: FALSE

###

# PROCEDURE DETAILS: viability loss in pontine glioma line – cell-based, SU-DIPG-XXV, MIPE5.0, CellTiter-Glo, qHTS, dose response (AID 1347065);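 further: cells exposed to compound for 48 hours before ATP readout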
# PROTOCOL CONDITIONS: CellTiter-Glo ATP luminescence
Inconclusive results are not listed. The source made the active and inactive calls. Cut-off not given; nearly all actives show AC50 up to about 26 µM.
ENDPOINT: AC50

Prompt: Name the recorded AC50 for `CCN1CCN(Cc2ccc(NC(=O)c3ccc(C)c(/C=C/c4cnc5[nH]ccc5c4OC)c3)cc2C(F)(F)F)CC1` .
Response: 2.09 µM (active)

Prompt: Name the recorded AC50 for `CC(C)(CO)n1cc(C(=O)c2cncc(NC(=O)Cc3ccc(Cl)cn3)c2)c2cnc(N)nc21` .
Response: inactive

Prompt: Name the recorded AC50 for `COc1cc2c(NC3CCN(C)CC3)nc(N3CCCN(C)CC3)nc2cc1OCCCN(C)C` .
Response: inactive

###

# PROCEDURE DETAILS: viability loss in pontine glioma line – cell-based, SU-DIPG-XVII, MIPE5.0, CellTiter-Glo, qHTS, dose response (AID 1347060);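 on AC50: cells exposed to compound for 48 hours before viability readout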
# PROTOCOL CONDITIONS: CellTiter-Glo ATP luminescence
Records with an inconclusive call do not appear. The source made the active and inactive calls. Cut-off not given; nearly all actives show AC50 up to about 26 µM.
Can you answer with just one of these options? yes = active, no = inactive

Prompt: Record lookup: outcome of this test for `N#CCC1(n2cc(-c3ncnc4[nH]ccc34)cn2)CN(C2CCN(C(=O)c3ccnc(C(F)(F)F)c3F)CC2)C1` ?
Response: no

New cases:
Prompt: Record lookup: outcome of this test for `COc1ccc(-n2nc(C(N)=O)c3c2C(=O)N(c2ccc(N4CCCCC4=O)cc2)CC3)cc1` ?
Response: no

Prompt: Record lookup: outcome of this test for `C=CC(=O)Nc1ccc2ncnc(Nc3cccc(Br)c3)c2c1` ?
Response: yes

Prompt: Record lookup: outcome of this test for `CS(=O)(=O)c1ccc(Oc2cc(F)cc(C#N)c2)c2c1[C@H](O)C(F)(F)C2` ?
Response: no

Prompt: Record lookup: outcome of this test for `C[C@@H](Oc1ccc2[nH]nc(/C=C/c3cnn(CCO)c3)c2c1)c1c(Cl)cncc1Cl` ?
Response: yes

Prompt: Record lookup: outcome of this test for `N#Cc1c(N)nc(N)nc1N[C@H](c1nc2c(F)ccc(Cl)c2c(=O)n1-c1cccnc1)C1CC1` ?
Response: yes
